method-description: Cell viability assay (ATP bioluminescence)
assay-setup: human
recorded-endpoint: CC50 at 24 h (µg/mL)
Enter your answer as a number in µg/mL; do not include the unit.

Kindly note the recorded CC50 at 24 h for CCN(CC)CCOc1cc(-c2ccc(Cl)s2)nc2ccccc12.Cl [Compound 37a] , which is 6.33

* * *

Task for the reader: assign each of the following molecules its reported melting point.

Kindly note the recorded melting point for CCCOc1ccc(-c2cc(OCCN3CCCCC3)c3ccccc3n2)nc1 [Compound 30b] , which is 90 to 91 °C

Kindly note the recorded melting point for CCCOc1ccc(-c2cc(OCCN3CCCCC3)c3ccccc3n2)cn1.Cl [Compound 31b] , which is 223 to 224 °C

Kindly note the recorded melting point for c1cncc(-c2cc(OCCN3CCCCC3)c3ccccc3n2)c1 [Compound 33b] , which is 101.5 to 102.5 °C

Kindly note the recorded melting point for c1ccc(-c2cc(OCCN3CCCCC3)c3ccccc3n2)nc1 [Compound 32b] , which is 77 to 79.5 °C

Kindly note the recorded melting point for CCCOc1ccc(-c2cc(OCCN(CC)CC)c3ccccc3n2)nc1.Cl [Compound 30a] , which is 212 to 213 °C

Kindly note the recorded melting point for Clc1ccc(-c2cc(OCCN3CCCCC3)c3ccccc3n2)s1 , which is 99 to 101 °C
